# system_tested: S100A1
# protocol_notes: FP; competitive
reported_metric: Kd (nM)

binder	Kd (nM)
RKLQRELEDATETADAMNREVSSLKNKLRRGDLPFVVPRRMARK [NMIIA (1894-1937) peptide]	4

(P) MAATAAAVVAEEDTELRDLLVQTLENSGVLNRIKAELRAAVFLALEEQ [FOP (1-48) peptide]
(Q) NQVRPKLPLLKILHAAGAQ [MDM4 (25-43) peptide]
Exercise: Compare P and Q and name the one whose reported Kd is smaller. // caller expects the label of the chosen entry
Key: P
(P: 350 nM, Q: 35000 nM)

(I) TRTKIDWNKILS [CapZ (265-276) peptide]
(II) RRLLFYKYVYKR [NCX1 (254-265) peptide]
Exercise: Pick one: I or II . Which has the bigger Kd number? Give the chosen item's label as your response.
Key: I
